Reported IC50 values are given for each entry in this list.
tested on: NOMO-1; test: Alamar Blue cell viability assay, NOMO-1; type: cell-based; settings: Homo sapiens, 96 h incubation, read-out: cell proliferation inhibition NOMO-1
Structures can show the parent of a compound that is named as a salt.

>>> df
                                   molecule  result
0  CNC(=O)c1cc2ccc(N3CCCN(C)CC3)nc2n2c1nc1ccccc12  < 1 µM

Known value: NOMO-1 IC50 of the molecule C[C@@H]1CN(c2ccc3cc(C#N)c4nc5ccccc5n4c3n2)C[C@H](C)N1 equals < 1 µM

Record CN1CCCN(c2ccc3cc(C(=O)O)c4nc5ccccc5n4c3n2)CC1 [Compound 1A, sodium salt] / NOMO-1, IC50 recorded as < 1 µM

----------
tested on: SKM_1_AV; assay: Alamar Blue cell viability assay, SKM_1_AV; format: cell-based; conditions: 96 h incubation, read-out: cell proliferation inhibition SKM_1_AV
pIC50: −log10 of the molar value. Counter-ions that a name gives are not always drawn.
Experimental endpoint: pIC50

# annotated cases, reported pIC50 shown
>>> print(df.to_string())
                                   compound  target_desc  result
0  CNC(=O)c1cc2ccc(N3CCCN(C)CC3)nc2n2c1nc1ccccc12 [Compound 2G]     SKM_1_AV  > 6.00
1  CN1CCCN(c2ccc3cc(C(=O)O)c4nc5ccccc5n4c3n2)CC1 [Compound 1A, sodium salt]     SKM_1_AV  > 6.00

Note: attention shifts to another entry.
In plain terms, C[C@@H]1CN(c2ccc3cc(C#N)c4nc5ccccc5n4c3n2)C[C@H](C)N1 [Compound 3A] has a documented pIC50 of > 6.00

----------
system: MDA-MB-231; assay: Alamar Blue cell viability assay, MDA-MB-231; type: cell-based; conditions: Homo sapiens, 96 h incubation, read-out: cell proliferation inhibition MDA-MB-231
Counter-ions that a name gives are not always drawn.
Experimental endpoint: IC50

In [3]: df
Out[3]:
                                   compound  result
0  CNC(=O)c1cc2ccc(N3CCCN(C)CC3)nc2n2c1nc1ccccc12 [Compound 2G]  < 1 µM

IC50 for MDA-MB-231 with input CN1CCCN(c2ccc3cc(C(=O)O)c4nc5ccccc5n4c3n2)CC1 [Compound 1A, sodium salt] equals 1 to 5 µM

Item: C[C@@H]1CN(c2ccc3cc(C#N)c4nc5ccccc5n4c3n2)C[C@H](C)N1 [Compound 3A] | System: MDA-MB-231 | IC50: < 1 µM
